Observed IC50 values for human ACC2 (Homo sapiens (Human), UniProt O00763) are listed in what follows.
Outcome measure: IC50 (nM)

>  <Molecule>
C[C@H](NC(=O)C(F)F)c1ccc(OC2CCN(c3ccnc(OCC(F)F)c3)C2)cc1 (stereo partly shown) [Example 2.97]

>  <Outcome measure>
IC50

>  <Measured>
140

$$$$
>  <Molecule>
CC(=O)N[C@@H](C)c1ccc(O[C@@H]2CCN(c3ccnc(NCC4CC4)c3Cl)C2)cc1 [Example 1.138]

>  <Outcome measure>
IC50

>  <Measured>
26

$$$$
>  <Molecule>
C[C@H](NC(=O)C1CC1)c1ccc(O[C@@H]2CCN(c3ccnc(OC4CCC4)c3)C2)cc1 [Example 9.41]

>  <Outcome measure>
IC50

>  <Measured>
95

$$$$
>  <Molecule>
CCOc1cnc(N2CCC(Oc3ccc([C@H](C)NC(C)=O)cc3)C2)c(C)c1 (stereo partly shown) [Example 1.52]

>  <Outcome measure>
IC50

>  <Measured>
474

$$$$

* * *

biological target: human ACC2 (Homo sapiens (Human), UniProt O00763)
Sequence (O00763 129-2458): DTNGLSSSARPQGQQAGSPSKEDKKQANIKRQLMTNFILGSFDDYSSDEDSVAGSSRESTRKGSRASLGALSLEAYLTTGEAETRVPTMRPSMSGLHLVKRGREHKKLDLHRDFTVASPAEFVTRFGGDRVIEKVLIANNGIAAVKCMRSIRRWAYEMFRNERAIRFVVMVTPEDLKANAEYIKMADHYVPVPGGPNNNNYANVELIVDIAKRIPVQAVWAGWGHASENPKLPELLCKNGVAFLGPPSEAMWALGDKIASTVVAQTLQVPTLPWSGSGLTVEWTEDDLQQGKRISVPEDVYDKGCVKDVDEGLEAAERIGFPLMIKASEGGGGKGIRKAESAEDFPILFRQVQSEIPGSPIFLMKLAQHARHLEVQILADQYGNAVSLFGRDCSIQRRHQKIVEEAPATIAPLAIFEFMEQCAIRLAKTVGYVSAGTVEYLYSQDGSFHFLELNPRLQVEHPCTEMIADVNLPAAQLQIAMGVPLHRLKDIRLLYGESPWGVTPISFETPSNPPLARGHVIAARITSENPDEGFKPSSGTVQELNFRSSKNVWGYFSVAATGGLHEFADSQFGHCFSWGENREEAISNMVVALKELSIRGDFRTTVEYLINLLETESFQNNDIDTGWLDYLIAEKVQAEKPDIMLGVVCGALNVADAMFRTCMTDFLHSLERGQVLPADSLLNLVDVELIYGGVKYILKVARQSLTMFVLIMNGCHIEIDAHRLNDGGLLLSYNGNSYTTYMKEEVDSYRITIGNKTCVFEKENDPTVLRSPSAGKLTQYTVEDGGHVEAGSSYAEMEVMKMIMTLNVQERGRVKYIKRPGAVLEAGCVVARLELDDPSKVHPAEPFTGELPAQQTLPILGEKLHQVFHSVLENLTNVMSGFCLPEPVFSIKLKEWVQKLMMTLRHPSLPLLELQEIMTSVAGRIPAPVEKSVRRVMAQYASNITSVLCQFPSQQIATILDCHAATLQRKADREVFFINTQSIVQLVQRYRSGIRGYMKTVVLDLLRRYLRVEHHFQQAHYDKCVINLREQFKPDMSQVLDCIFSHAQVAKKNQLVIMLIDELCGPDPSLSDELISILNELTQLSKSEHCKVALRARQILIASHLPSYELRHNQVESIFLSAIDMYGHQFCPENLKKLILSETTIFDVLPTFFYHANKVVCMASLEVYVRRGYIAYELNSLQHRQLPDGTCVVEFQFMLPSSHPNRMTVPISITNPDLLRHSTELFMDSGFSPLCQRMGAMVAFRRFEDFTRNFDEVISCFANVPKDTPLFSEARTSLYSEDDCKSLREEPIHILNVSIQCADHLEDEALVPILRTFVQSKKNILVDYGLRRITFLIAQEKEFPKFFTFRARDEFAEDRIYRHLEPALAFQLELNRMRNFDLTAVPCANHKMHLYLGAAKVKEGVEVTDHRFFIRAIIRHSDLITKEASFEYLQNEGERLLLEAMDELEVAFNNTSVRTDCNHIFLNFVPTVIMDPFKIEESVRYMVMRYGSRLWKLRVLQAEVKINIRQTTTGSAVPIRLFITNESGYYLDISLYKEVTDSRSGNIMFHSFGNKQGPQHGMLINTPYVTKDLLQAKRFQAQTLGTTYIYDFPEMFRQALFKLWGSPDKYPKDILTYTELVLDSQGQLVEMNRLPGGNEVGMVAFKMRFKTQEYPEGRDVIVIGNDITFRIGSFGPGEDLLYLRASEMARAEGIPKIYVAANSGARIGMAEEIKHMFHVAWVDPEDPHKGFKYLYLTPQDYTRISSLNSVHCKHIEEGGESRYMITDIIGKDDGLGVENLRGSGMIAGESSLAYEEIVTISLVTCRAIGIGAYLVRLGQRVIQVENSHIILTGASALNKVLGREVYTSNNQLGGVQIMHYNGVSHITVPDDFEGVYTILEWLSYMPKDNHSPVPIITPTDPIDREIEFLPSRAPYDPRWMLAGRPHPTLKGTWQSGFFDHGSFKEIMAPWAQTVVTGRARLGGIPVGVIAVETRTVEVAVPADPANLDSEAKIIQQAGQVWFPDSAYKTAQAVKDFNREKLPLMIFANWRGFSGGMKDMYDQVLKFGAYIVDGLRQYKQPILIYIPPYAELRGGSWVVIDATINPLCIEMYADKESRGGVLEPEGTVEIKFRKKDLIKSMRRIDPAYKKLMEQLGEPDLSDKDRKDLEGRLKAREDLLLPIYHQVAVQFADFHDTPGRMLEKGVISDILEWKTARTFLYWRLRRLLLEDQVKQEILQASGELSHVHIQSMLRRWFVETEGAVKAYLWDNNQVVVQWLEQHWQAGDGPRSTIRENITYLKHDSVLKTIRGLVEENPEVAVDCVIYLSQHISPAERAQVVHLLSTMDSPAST
pIC50: −log10 of the molar value.
Values of pIC50 greater than or equal to 7 map to Met; values below map to Not met.

>  <Compound>
CC(=O)N[C@@H](C)c1ccc(O[C@@H]2CCN(c3ccnc(OC4CCCC4)c3)C2)cc1

>  <Experimental target>
human ACC2 (Homo sapiens (Human), UniProt O00763)

>  <Class>
Met

$$$$
>  <Compound>
CC(=O)N[C@@H](C)c1ccc(O[C@@H]2CCN(c3cccc(N4CCC(F)(F)CC4)n3)C2)cc1

>  <Experimental target>
human ACC2 (Homo sapiens (Human), UniProt O00763)

>  <Class>
Not met

$$$$
>  <Compound>
CC(=O)N[C@@H](C)c1ccc(O[C@@H]2CCN(c3ccnc(OCC4CC4)c3F)C2)cc1

>  <Experimental target>
human ACC2 (Homo sapiens (Human), UniProt O00763)

>  <Class>
Met

$$$$
>  <Compound>
C[C@H](NC(=O)c1ccnc(C#N)c1)c1ccc(OC2CCN(c3cccc(C(F)(F)F)n3)C2)cc1 (stereo partly drawn)

>  <Experimental target>
human ACC2 (Homo sapiens (Human), UniProt O00763)

>  <Class>
Not met

$$$$
>  <Compound>
CCOc1cc(N2CC[C@@H](Oc3ccc([C@H](C)NC(=O)C4CC4)cc3)C2)ccn1

>  <Experimental target>
human ACC2 (Homo sapiens (Human), UniProt O00763)

>  <Class>
Not met

$$$$
>  <Compound>
CC(=O)N[C@@H](C)c1ccc(O[C@@H]2CCN(c3cc(NCC4CC4)ncc3F)C2)cc1

>  <Experimental target>
human ACC2 (Homo sapiens (Human), UniProt O00763)

>  <Class>
Not met

$$$$
>  <Compound>
CC(=O)N[C@@H](C)c1ccc(O[C@@H]2CCN(c3cccc(N4CCOCC4C)n3)C2)cc1 (stereo partly drawn)

>  <Experimental target>
human ACC2 (Homo sapiens (Human), UniProt O00763)

>  <Class>
Not met

$$$$
>  <Compound>
CC(C)Oc1cc(N2CCC(Oc3ccc([C@H](C)NC(=O)C(C)F)cc3)C2)ccn1 (stereo partly drawn)

>  <Experimental target>
human ACC2 (Homo sapiens (Human), UniProt O00763)

>  <Class>
Not met

$$$$
